# test summary: chemical genetic growth profiling, strain panel (AID 1159580);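 further: tested at 20 µM; growth read once vehicle control cultures reached saturation at 30 °C; 1 = growth at the plate median or of vehicle wells; lower values mean less growth of the strain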
# protocol conditions: S. cerevisiae deletion strains, growth OD, locus YKL101W, strain HSL1, stronger effect = lower value
The whole screen tested about 5,500 compounds, of which about 2,000 (36%) were called active. Inconclusive results (about 18%) are left out. The list shows a part of the results.
Could you please mark condition met for values of normalized growth below 0.9 and condition not met for values at or above it?

> print(dat)
                                    compound     discrete.label
 1                 Nc1ccccc1SCc1c(Cl)cccc1Cl      condition met
 2  Cc1nnsc1C(=O)Nc1cc(C(F)(F)F)cc(C(F)(F)F)c1  condition not met
 3             COc1cc(NC(=S)N(C)C)c(OC)cc1Cl  condition not met
 4           O=C(CSc1nnnn1-c1ccccc1)c1ccccc1      condition met
 5       COc1ccc(/C=C2\CSc3ccc(F)cc3C2=O)cc1  condition not met
 6  Cc1ccc(OCC2SCCN2C(=O)c2ccc(C(F)(F)F)cc2)c([N+](=O)[O-])c1 (centres undefined)  condition not met
 7    Cc1ccc(Sc2c(Sc3ccc(C)cc3)c(=O)c2=O)cc1      condition met
 8  O=C1C(=O)N(CN2CCc3c([nH]c4ccccc34)C2C(F)(F)F)c2ccc(F)cc21 (centres undefined)      condition met
 9  COc1ccc(CN2CSC(=S)N(Cc3ccc(OC)cc3)C2)cc1  condition not met
10  CC(=O)CSc1nnc(-c2ccc(C(C)(C)C)cc2)n1-c1ccc(Cl)cc1  condition not met
11  O=C(N/C=C/c1ccsc1)Nc1cc(C(F)(F)F)cc(C(F)(F)F)c1      condition met
12    COc1cc(NC(=S)NC(=O)c2ccccc2)c(OC)cc1Cl  condition not met
13  N#Cc1ccc(S(=O)(=O)Nc2ccccc2Oc2ccc(Cl)cc2Cl)cc1  condition not met
14      Cc1cc(C(=O)Nc2ccc(Cl)cc2)nn1C(C)(C)C  condition not met
15     Cc1cc(NNC(=O)c2ccccc2Cl)nc2c1c(C)nn2C  condition not met
16   CC(C)(C)CN/C(C#N)=C(/C#N)NCc1cccc(Cl)c1  condition not met

---

# test summary: chemical genetic growth profiling, strain panel (AID 1159580)
# protocol conditions: S. cerevisiae deletion strains, growth OD, locus YNL271C, strain bni1, stronger effect = lower value
About 2,000 (36%) of roughly 5,500 compounds were called active. Another 18% or so got no clear call; they are omitted. The list shows a part of the results.

compound	normalized growth
CN[C@@H](C)[C@@H](O)c1ccccc1	0.976
CS(=O)(=O)c1ccc(C2=C(c3ccccc3)C(=O)OC2)cc1	0.971
COc1ccc2c3c1O[C@H]1C[C@@H](O)C=C[C@@]31CCN(C)C2	1.02
CC(NCCc1ccc(O)cc1)C(O)c1ccc(O)cc1 (configuration not stated)	0.973
CC(=O)OCC[N+](C)(C)C	1.01
CO[C@H]1[C@H](O)[C@H](O[C@H]2CC[C@]3(C)C4CC[C@]5(C)C(C6=CC(=O)OC6)CC[C@]5(O)C4CC[C@@H]3C2)O[C@@H](C)[C@@H]1O (some centres not stated)	1.01
O=C(CC[N+](=O)[O-])OC[C@H]1O[C@@H](O)[C@H](OC(=O)CC[N+](=O)[O-])[C@@H](OC(=O)CC[N+](=O)[O-])[C@@H]1OC(=O)CC[N+](=O)[O-]	1.01
c1cncc(C2CCCCN2)c1 (configuration not stated)	0.996
CCN(CC)CCNC(=O)c1cc(Br)c(N)cc1OC	0.988
CNC(C)[C@H](O)c1ccccc1 (some centres not stated)	0.982
COC1=C(OC)C(=O)C(C/C=C(\C)CC/C=C(\C)CC/C=C(\C)CC/C=C(/C)CC/C=C(\C)CC/C=C(\C)CC/C=C(\C)CC/C=C(\C)CC/C=C(\C)CCC=C(C)C)=C(C)C1=O	1.02
COCCc1ccc(OCC(O)CNC(C)C)cc1 (configuration not stated)	1.01
Cc1cccc(C)c1OCC(C)N (configuration not stated)	0.985
N=c1ccn2c(n1)O[C@@H]1C2O[C@H](CO)[C@H]1O (some centres not stated)	1.02
OCC(O)C(O)C(O)CO (configuration not stated)	1.01
COP(=O)(OC)OC=C(Cl)Cl	0.98
CCC(C)C(OC(C)=O)C(=O)OC1C(O)C2C3(C)C=CC(=O)C(C)(C)C3CC(OC(=O)C(O)C(C)C)C2(C)C23OC2CC(c2ccoc2)C13C (configuration not stated)	0.993
O=C(O)c1cc2ccccc2c(Cc2c(O)c(C(=O)O)cc3ccccc23)c1O	1.01
COc1ccc2c(c1)OCc1c-2oc2cc(OC)ccc12	1.01
CCOC(=O)C(C)(C)Oc1ccc(Cl)cc1	0.997
CN(C)CC/C=C1\c2ccccc2Sc2ccc(Cl)cc21	1.01
COc1cc(NS(=O)(=O)c2ccc(N)cc2)nc(OC)n1	0.978
COc1ccc2c(c1OC)C(=O)O[C@H]2[C@H]1c2cc3c(cc2CCN1C)OCO3	1
CNCCc1ccccn1	1.02
CC(CCc1ccccc1)NC(C)C(O)c1ccc(O)cc1 (configuration not stated)	0.994
Cc1cc(O)c(C=O)c(O)c1C(=O)O	1
S=c1nc[nH]c2nc[nH]c12	0.979
ClC1=C(Cl)C2(Cl)C3C(Cl)C=CC3C1(Cl)C2(Cl)Cl (configuration not stated)	0.984
C[N+](C)(C)CCCCCC[N+](C)(C)C	0.984
COc1ccc2c(c1OC)C(=O)O[C@@H]2[C@H]1c2cc3c(cc2CCN1C)OCO3	1.01
C[C@]12CC(=O)C3C(CC[C@@H]4C[C@H](O)CC[C@]34C)C1CC[C@]2(O)C(=O)CO (some centres not stated)	0.989
CC(Oc1ccccc1)C(=O)N[C@@H]1C(=O)N2[C@@H]1SC(C)(C)[C@@H]2C(=O)O (some centres not stated)	1.02

---

The following compounds are shown together with reported normalized growth values.
# test summary: chemical genetic growth profiling, strain panel (AID 1159580);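 further: tested at 20 µM; growth read once vehicle control cultures reached saturation at 30 °C; 1 = growth at the plate median or of vehicle wells; lower values mean less growth of the strain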
# protocol conditions: S. cerevisiae deletion strains, growth OD, locus YNL250W, strain rad50, stronger effect = lower value
Hit rate of the full screen: of about 5,500 compounds, about 2,000 (36%) were called active. Inconclusive results (about 18%) are left out. The list shows a part of the results.

compound	normalized growth
COc1ccc2c3c1O[C@H]1C[C@@H](O)C=C[C@@]31CCN(C)C2	1.01
COc1cc2c(cc1OC)C(=O)OC2	0.995
CCOC(=O)C(=O)C1(C(=O)OCC)Oc2cc(OC)cc(OC)c2C(=O)C1c1ccccc1 (stereo unspecified)	0.96
CO[C@H]1[C@H](O)[C@H](O[C@H]2CC[C@]3(C)C4CC[C@]5(C)C(C6=CC(=O)OC6)CC[C@]5(O)C4CC[C@@H]3C2)O[C@@H](C)[C@@H]1O (stereo partly specified)	1
COc1cc2c(cc1OC)C1C(=O)c3c(OC)cc4c(c3OC1CO2)CCC(C)(C)O4 (stereo unspecified)	0.968
C=Cc1c2[nH]c(c1C)C=c1[nH]c(c(C)c1C=C)=CC1N=C(C=c3[nH]c(c(C)c3CCC(=O)O)=C2)C(CCC(=O)O)=C1C (stereo unspecified)	1.02

---

The following compounds are shown together with reported normalized growth values.
# test summary: chemical genetic growth profiling, strain panel (AID 1159580);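 further: tested at 20 µM; growth read once vehicle control cultures reached saturation at 30 °C; 1 = growth at the plate median or of vehicle wells; lower values mean less growth of the strain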
# protocol conditions: S. cerevisiae deletion strains, growth OD, locus YJL115W, strain asf1, stronger effect = lower value
Among all 5,500 compounds or so, about 2,000 (36%) were called active. Inconclusive results (about 18%) are left out. This is one part of the list.
result type: normalized growth

> print(dat)
                                   compound      result.value
1                  Cc1cc(O)c(C)c(O)c1C(=O)O  0.983 (inactive)
2                     COP(=O)(OC)OC=C(Cl)Cl  0.998 (inactive)
3  CC1=C(C(C)O)C2=NC1C=c1[nH]c(c(C)c1C(C)O)=Cc1[nH]c(c(CCC(=O)O)c1C)C=c1[nH]c(c(C)c1CCC(=O)O)=C2 (stereo unspecified)  0.977 (inactive)
4  CC1CC2C3CCC4=CC(=O)C=C[C@]4(C)[C@@]3(F)[C@@H](O)C[C@]2(C)[C@@]1(O)C(=O)CO (stereo partly specified)  0.976 (inactive)
5                     S=c1nc[nH]c2nc[nH]c12  0.972 (inactive)
6   NCC1CCC(C(=O)O)CC1 (stereo unspecified)   0.98 (inactive)

---

# test summary: chemical genetic growth profiling, strain panel (AID 1159580);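 further: tested at 20 µM; growth read once vehicle control cultures reached saturation at 30 °C; 1 = growth at the plate median or of vehicle wells; lower values mean less growth of the strain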
# protocol conditions: S. cerevisiae deletion strains, growth OD, locus YPL106C, strain sse1, stronger effect = lower value
Hit rate of the full screen: of about 5,500 compounds, about 2,000 (36%) were called active. Roughly 18% stayed inconclusive and do not appear here. This is one part of the list.
Could you please mark True for values of normalized growth below 1 and False for values at or above it?

compound	discrete label
CCOC(=O)C(C)(C)Oc1ccc(Cl)cc1	True
COc1ccc2c(c1)OCc1c-2oc2cc(OC)ccc12	True
CC(=O)O[C@@H]1C[C@@]2(C)C(CC[C@@H]2C(C)=O)C2CCC3=CC(=O)CC[C@]3(C)C21 (stereo not given in full)	False
COc1cc(/C=C/C(=O)/C=C(O)/C=C/c2ccc(O)c(OC)c2)ccc1O	True
CCOC(=O)c1c(C)cc(O)c(C=O)c1O	True
CCOC(=O)c1c(C)c(Cl)c(O)c(Cl)c1O	True
COc1cc(O)c(C(=O)/C=C/c2ccc(O)c(OC)c2)c(OC)c1	True
COc1ccc2cc([C@H](C)CO)ccc2c1	False
COc1cc(O)c(C(=O)/C=C/c2ccc(OC)c(O)c2)c(OC)c1	True
CC(=O)[C@H]1CCC2C3CCC4=CC(=O)CC[C@]4(C)C3CC[C@@]21C (stereo not given in full)	False
COc1ccc2c(C)cc(=O)oc2c1	True
COC1=C(OC)C(=O)C(C/C=C(\C)CC/C=C(\C)CC/C=C(\C)CC/C=C(/C)CC/C=C(\C)CC/C=C(\C)CC/C=C(\C)CC/C=C(\C)CC/C=C(\C)CCC=C(C)C)=C(C)C1=O	True
O=C(O)C1(O)C[C@@H](O)C(O)[C@H](O)C1 (stereo not given in full)	True
Cc1cc(O)c(C)c(O)c1C(=O)O	True
